Can you tell me pIC50 for the items I'm about to list?
Field pIC50 (float): negative decimal logarithm of the concentration in molar.

Identify measured pIC50 obtained with Cannabinoid receptor 1 (Cricetulus griseus) for Cc1c(C(=O)NN2CCN(C)CC2)nn(-c2ccc(Cl)cc2Cl)c1-c1ccc(Cl)cc1 .
Sequence (Q99NU1 whole entry): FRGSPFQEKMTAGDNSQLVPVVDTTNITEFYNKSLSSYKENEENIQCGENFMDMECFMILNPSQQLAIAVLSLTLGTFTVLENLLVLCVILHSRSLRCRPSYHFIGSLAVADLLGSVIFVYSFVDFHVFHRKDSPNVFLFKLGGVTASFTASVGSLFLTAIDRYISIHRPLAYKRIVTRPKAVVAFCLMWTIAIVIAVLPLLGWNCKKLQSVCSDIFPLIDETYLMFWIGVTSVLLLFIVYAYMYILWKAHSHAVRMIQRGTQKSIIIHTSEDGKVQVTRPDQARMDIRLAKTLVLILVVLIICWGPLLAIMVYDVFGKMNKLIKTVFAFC
6.76

Identify measured pIC50 obtained with Cannabinoid receptor 1 (Cricetulus griseus) for Cc1c(C(=O)NN2CCCCC2)nn(-c2ccccn2)c1-c1ccc(Cl)cc1 .
6.29

Identify measured pIC50 obtained with Cannabinoid receptor 1 (Cricetulus griseus) for Cc1c(C(=O)NN2CCCCC2)nn(-c2ccc(C(F)(F)F)cc2)c1-c1ccc(Cl)cc1 .
7.03

Identify measured pIC50 obtained with Cannabinoid receptor 1 (Cricetulus griseus) for Cc1c(CN(CC(=O)O)Cc2nn(-c3ccc(Cl)cc3Cl)c(-c3ccc(Cl)cc3)c2C)nn(-c2ccc(Cl)cc2Cl)c1-c1ccc(Cl)cc1 .
6.29

Identify measured pIC50 obtained with Cannabinoid receptor 1 (Cricetulus griseus) for COc1ccc2ccc(CCNC(=O)c3nn(-c4ccc(Cl)cc4Cl)c(-c4ccc(Cl)cc4)c3C)cc2c1 .
6.40

Identify measured pIC50 obtained with Cannabinoid receptor 1 (Cricetulus griseus) for Cc1c(C(=O)NN2CCCCCC2)nn(-c2ccccn2)c1-c1ccc(Cl)cc1 .
6.42

Identify measured pIC50 obtained with Cannabinoid receptor 1 (Cricetulus griseus) for Cc1c(C(=O)NN2CCCCCC2)nn(-c2ccc(C(F)(F)F)cc2)c1-c1ccc(Cl)cc1 .
7.01

Identify measured pIC50 obtained with Cannabinoid receptor 1 (Cricetulus griseus) for Cc1c(C(=O)NC2CCC(C)CC2)nn(-c2ccc(C(F)(F)F)cc2)c1-c1ccc(Cl)cc1 (centres undefined) .
7.10

Identify measured pIC50 obtained with Cannabinoid receptor 1 (Cricetulus griseus) for Cc1c(C(=O)NCCCN2CCOCC2)nn(-c2ccc(Cl)cc2Cl)c1-c1ccc(Cl)cc1 .
6.34

Identify measured pIC50 obtained with Cannabinoid receptor 1 (Cricetulus griseus) for Cc1c(C(=O)NC2CCC(C)CC2)nn(-c2ccc(Cl)cc2Cl)c1-c1ccc(Cl)cc1 (centres undefined) .
8.37

Identify measured pIC50 obtained with Cannabinoid receptor 1 (Cricetulus griseus) for Cc1c(C(=O)NCCCN2CCCC2)nn(-c2ccc(Cl)cc2Cl)c1-c1ccc(Cl)cc1 .
6.17

Identify measured pIC50 obtained with Cannabinoid receptor 1 (Cricetulus griseus) for Cc1c(C(=O)NC2CCC(C)CC2)nn(-c2ccccn2)c1-c1ccc(Cl)cc1 (centres undefined) .
6.21
